Reported TGI values for the following compounds.
- System: RXF-631 renal
- experiment: NCI tumour cell line growth inhibition, 48 h
quantity: TGI

compound	test-value
COc1ccccc1NC(=O)C(CC(C(=O)Nc1ccccc1OC)/C(C)=N/NC(=O)c1ccccc1O)/C(C)=N/NC(=O)c1ccccc1O (centres undefined)	> 100 µM
CC/C(SC)=[N+](\C)[O-]	> 100 µM
CC(C)(C)C(=O)/C=C/c1cccc(Oc2ccccc2)c1	> 100 µM
Cc1ccc(N2C(=O)C(Cl)=C(Cl)C2=O)cc1	42.2 µM
c1ccc2c(c1)[nH]c1c2ncc2[nH]c3ccccc3c21	5.05 µM
COC1=CC(=O)C2C(C1=O)C(c1ccc(OC)c(OC)c1)[C@H]2C (some centres undefined)	32.7 µM
O=C(O)[C@@H](NS(=O)(=O)c1ccc([N+](=O)[O-])cc1)c1ccccc1	> 100 µM
CCCCCCCCCCCCCCCCCC[N+](C)(C)Cc1ccc(C[N+](C)(C)CCCCCCCCCCCCCCCCCC)cc1	57.1 µM
Cn1nc2ccccc2cc1=O	> 100 µM

---

Below, each entry is listed with its recorded TGI.
- System: UO-31 renal
- experiment: NCI tumour cell line growth inhibition, 48 h

compound	result-qualifier	TGI, µM
Nc1nc(=Nc2ccccc2)ss1	>	100
Cc1ccccc1NC(=O)c1ccc([N+](=O)[O-])cc1	>	100
O=[N+]([O-])c1ccc(C(=Nc2ccccc2)SSC(=Nc2ccccc2)c2ccc([N+](=O)[O-])o2)o1	=	2.82
Oc1c(CN2CCN(c3ccccc3F)CC2)cc(Br)c2cccnc12	=	3.58
CCCCCCCCCCCCCCCCCC[N+](C)(C)Cc1ccc(C[N+](C)(C)CCCCCCCCCCCCCCCCCC)cc1	=	56.3
CC(=O)C1=C(O)CCC1=O	>	100
O=C(COc1ccc(Cl)cc1Cl)N/N=C/C=C/c1ccc([N+](=O)[O-])o1	>	100
CCCCCC/C=C1\CCC(CN(C)C)C1=O (centres undefined)	=	28.9
C=CCSSc1ncnc2c1ncn2C1OC(CO)C(O)C1O (centres undefined)	=	16.8
Cc1nc2sc(C(=O)Nc3cccc(Br)c3)c(N)c2cc1C(O)c1ccccc1 (centres undefined)	=	16.5
CC(C)C1COC(c2ccc3ccccc3c2-c2c(O[Si](C)(C)C(C)(C)C)ccc3ccccc23)=N1 (centres undefined)	=	28.2
COC1=CC(=O)C2C(C1=O)C(c1ccc(OC)c(OC)c1)[C@H]2C (some centres undefined)	>	100
CCN1CCN(c2ccc(Nc3ncc4ccc5ncn(C(C)C)c5c4n3)nc2)CC1	=	0.378
c1ccc2c(c1)[nH]c1c2ncc2[nH]c3ccccc3c21	=	8.79
CCCN1C(=O)CNC(=O)c2[nH]cnc21	>	100
C=C(CN)CO[Si](C)(C)C(C)(C)C	>	100
O=C(O)CCSC(=S)Nc1ccc([N+](=O)[O-])cc1	>	100
Cc1ccc(SSCCCCCS(=O)O)cc1	=	67.2
CC(C)c1cccc(C(C)C)c1NC(=O)CCC(=O)NN	>	100
CC1=CC(=O)c2ccc(C)cc2C1=O	=	24.6
CCOCCOC[C@H]1CCCN(c2ccnc3sc(C(N)=O)c(N)c23)C1	>	100
Fc1cccc(-c2[nH]nc3nc(Nc4cccnc4)sc23)c1	>	100
CCN(CC)CC[n+]1cc2cc(OC)c(OC)cc2c2ccc3cc4c(cc3c21)OCO4	=	8.6
CCOC(=O)c1ccc(N=c2oc3ccc(OC)cc3cc2-c2nc3ccccc3[nH]2)cc1	>	100
